B1: library; numbered along this chain (parent)
chain: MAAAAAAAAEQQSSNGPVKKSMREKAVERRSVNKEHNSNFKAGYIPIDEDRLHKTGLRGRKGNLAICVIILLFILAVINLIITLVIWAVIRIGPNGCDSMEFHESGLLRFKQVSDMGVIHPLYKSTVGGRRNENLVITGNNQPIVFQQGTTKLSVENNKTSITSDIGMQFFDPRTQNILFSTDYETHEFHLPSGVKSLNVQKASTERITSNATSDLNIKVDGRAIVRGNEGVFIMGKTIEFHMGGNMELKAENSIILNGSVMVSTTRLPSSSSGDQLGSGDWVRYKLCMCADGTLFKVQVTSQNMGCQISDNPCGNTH

variants of: B1; test: SGCB cell-surface expression functional score (HA stain, bin4 vs bin1, normalised to synonymous) (log10 ratio); higher = more cell-surface SGCB (functional)
Note that class boundaries on SGCB cell-surface expression functional score (log10) are low: < -0.3; mid: ≥ -0.3 and < 0.1; high: ≥ 0.1

[[record]]
variant_id = "M116V"
assigned_class = "low"

[[record]]
variant_id = "A6L"
assigned_class = "mid"

[[record]]
variant_id = "S161H"
assigned_class = "mid"

[[record]]
variant_id = "I255T"
assigned_class = "low"

[[record]]
variant_id = "S21A"
assigned_class = "high"

[[record]]
variant_id = "N158G"
assigned_class = "mid"

[[record]]
variant_id = "G222K"
assigned_class = "high"

[[record]]
variant_id = "L57I"
assigned_class = "high"

[[record]]
variant_id = "G274I"
assigned_class = "high"

[[record]]
variant_id = "A7T"
assigned_class = "high"

[[record]]
variant_id = "L216W"
assigned_class = "low"

[[record]]
variant_id = "I66P"
assigned_class = "low"

[[record]]
variant_id = "T265K"
assigned_class = "high"

[[record]]
variant_id = "S125I"
assigned_class = "low"

[[record]]
variant_id = "T294G"
assigned_class = "high"

[[record]]
variant_id = "V68H"
assigned_class = "low"

[[record]]
variant_id = "L135C"
assigned_class = "low"

[[record]]
variant_id = "T205H"
assigned_class = "low"

[[record]]
variant_id = "K297G"
assigned_class = "mid"

[[record]]
variant_id = "F171I"
assigned_class = "high"

[[record]]
variant_id = "F296G"
assigned_class = "low"

[[record]]
variant_id = "V155L"
assigned_class = "high"

[[record]]
variant_id = "G56I"
assigned_class = "high"

[[record]]
variant_id = "G278K"
assigned_class = "high"

[[record]]
variant_id = "I255V"
assigned_class = "mid"

[[record]]
variant_id = "C97K"
assigned_class = "low"

[[record]]
variant_id = "A3D"
assigned_class = "high"

[[record]]
variant_id = "K159S"
assigned_class = "low"

[[record]]
variant_id = "S271W"
assigned_class = "mid"

[[record]]
variant_id = "K25D"
assigned_class = "high"

[[record]]
variant_id = "G93H"
assigned_class = "high"

[[record]]
variant_id = "G167F"
assigned_class = "low"

[[record]]
variant_id = "N37A"
assigned_class = "mid"

[[record]]
variant_id = "W282C"
assigned_class = "low"

[[record]]
variant_id = "K237Q"
assigned_class = "low"

[[record]]
variant_id = "G117Y"
assigned_class = "low"

[[record]]
variant_id = "D50L"
assigned_class = "high"

[[record]]
variant_id = "A42M"
assigned_class = "high"

[[record]]
variant_id = "I309P"
assigned_class = "mid"

[[record]]
variant_id = "S38L"
assigned_class = "mid"

[[record]]
variant_id = "Y184A"
assigned_class = "low"

[[record]]
variant_id = "G93E"
assigned_class = "low"

